System: FaDu
Assay: mitochondrial oxygen consumption rate normalised to cell number, Z score over the library; higher = higher oxygen consumption (negative = OCR reduction)
Details: treatment time 24 h; assay medium: 5 mM galactose, 5 mM pyruvate, 4 mM glutamine; 10 µM
In all, about 1,600 compounds were measured (“mitochondrial oxygen consumption rate normalised to cell number, Z score over the library”: median about 0.065, lowest 2% from about -2.2 on). The list comes from a sample in which the lowest values are over-represented; it also holds close analogues and randomly drawn compounds.
endpoint-name: mitochondrial oxygen consumption rate normalised
Just the number, please, no unit attached.

Example cases with answers are listed next.
{"columns": ["molecule", "readout-number"],
 "data": [
  ["CC(CCc1ccc(O)cc1)NCC(O)c1ccc(O)cc1 (configuration not stated)", 0.0984],
  ["CC(C)NC(=N)NC(=N)Nc1ccc(Cl)cc1", -0.293],
  ["CC(C)CCC[C@@H](C)[C@H]1CC[C@H]2[C@@H]3CC=C4C[C@@H](O)CC[C@]4(C)[C@H]3CC[C@]12C", -0.87],
  ["CC(=O)Oc1c(C)c(C)c2c(c1C)CCC(C)(CCCC(C)CCCC(C)CCCC(C)C)O2 (stereo not drawn) [alpha-TOCHOPHERYL ACETATE]", -0.281],
  ["C#CCC(Cc1cnc2nc(N)nc(N)c2n1)c1ccc(C(=O)N[C@@H](CCC(=O)O)C(=O)O)cc1 (some centres not stated) [Pralatrexate]", 0.0598],
  ["CO[C@H]1/C=C/O[C@@]2(C)Oc3c(C)c(O)c4c(O)c(c5c(nc6cc(C)ccn65)c4c3C2=O)NC(=O)/C(C)=C\\C=C\\[C@H](C)[C@H](O)[C@@H](C)[C@@H](O)[C@@H](C)[C@H](OC(C)=O)[C@@H]1C", 0.795],
  ["CN(C)c1cnccn1", 0.284],
  ["N=C(N)c1ccc(N=NNc2ccc(C(=N)N)cc2)cc1", -0.185],
  ["CCCCC(CC)COC(=O)CC(C(=O)OCC(CC)CCCC)S(=O)(=O)O (configuration not stated)", 0.149],
  ["O=C(Nc1ccc([N+](=O)[O-])cc1Cl)c1cc(Cl)ccc1O", -5.97]
]}

Task: For C/C(=C\c1csc(C)n1)[C@@H]1C[C@@H]2O[C@]2(C)CCC[C@H](C)[C@H](O)[C@@H](C)C(=O)C(C)(C)[C@@H](O)CC(=O)N1 [Ixabepilone] , write its mitochondrial oxygen consumption rate normalised.
Output: -0.637

Task: Report measured mitochondrial oxygen consumption rate normalised; entry is N=C(N)c1ccc(OCCCCCOc2ccc(C(=N)N)cc2)cc1
Output: -3.01

Reference source: the supplement of paper PMC4962491
